molecular target: PRMT5/MEP50 complex (Homo sapiens (Human), UniProt O14744); experiment: PRMT5 biochemical assay (3H-SAM filter plate, histone H2A substrate); conditions: PRMT5/MEP50 5 nM, histone H2A 5 μM, SAM 1 μM; read-out: PRMT5 IC50
Sequence (O14744 whole entry): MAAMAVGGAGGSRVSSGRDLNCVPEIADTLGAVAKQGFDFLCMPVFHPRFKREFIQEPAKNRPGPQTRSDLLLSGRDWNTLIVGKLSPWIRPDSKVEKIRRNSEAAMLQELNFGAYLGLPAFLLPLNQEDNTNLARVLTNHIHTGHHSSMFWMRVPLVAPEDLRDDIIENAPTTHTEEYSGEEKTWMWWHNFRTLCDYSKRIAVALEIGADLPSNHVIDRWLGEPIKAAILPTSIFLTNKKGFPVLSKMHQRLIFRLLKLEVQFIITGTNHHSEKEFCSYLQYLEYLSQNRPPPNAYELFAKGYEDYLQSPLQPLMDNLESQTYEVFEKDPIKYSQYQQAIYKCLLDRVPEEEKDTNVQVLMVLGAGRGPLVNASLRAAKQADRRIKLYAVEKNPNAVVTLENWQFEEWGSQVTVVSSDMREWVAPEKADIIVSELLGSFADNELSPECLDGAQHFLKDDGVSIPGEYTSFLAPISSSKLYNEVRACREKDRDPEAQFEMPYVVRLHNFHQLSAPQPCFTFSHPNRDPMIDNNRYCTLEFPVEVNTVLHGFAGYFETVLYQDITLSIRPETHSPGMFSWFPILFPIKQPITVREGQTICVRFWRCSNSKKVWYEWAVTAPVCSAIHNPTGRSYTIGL
Sequence (Q9BQA1 whole entry partner): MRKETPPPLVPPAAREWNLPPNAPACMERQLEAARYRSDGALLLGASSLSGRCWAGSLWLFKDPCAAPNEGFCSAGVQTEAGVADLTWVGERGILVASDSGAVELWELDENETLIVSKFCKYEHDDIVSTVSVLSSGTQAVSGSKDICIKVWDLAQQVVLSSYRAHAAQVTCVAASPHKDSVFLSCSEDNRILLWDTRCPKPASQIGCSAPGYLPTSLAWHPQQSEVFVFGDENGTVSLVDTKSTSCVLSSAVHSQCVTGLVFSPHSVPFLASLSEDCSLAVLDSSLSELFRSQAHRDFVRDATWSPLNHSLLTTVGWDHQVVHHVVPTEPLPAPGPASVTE
value.kind: log10 IC50 (log10 of the value in nM)
# log10 transformed; quantity=IC50; unit=nM

[[record]]
molecule = "Cc1ncnc2c1ccn2[C@@H]1O[C@H](COc2ccc3cc(Br)c(N)nc3c2)[C@@](C)(O)[C@H]1O [Example 55]"
value_kind = "log10 IC50"
observed_result = -0.10


INPUT: What value of log10 IC50 has been recorded for this entry: Cc1ncnc2c1ccn2[C@@H]1O[C@H]([C@H](O)c2ccc(C(C)C)cc2)[C@@](C)(O)[C@H]1O [Example 59]
OUTPUT: 2.60

INPUT: Same again, this time with C[C@@]1(O)[C@@H](COc2ccc3ccc(N)nc3c2)O[C@@H](n2cc(F)c3c(N)ncnc32)[C@@H]1O [Example 6]
OUTPUT: -0.07

INPUT: Do the same for C[C@@]1(O)[C@@H]([C@H](O)c2ccc(Cl)cc2)O[C@@H](n2ccc3/c(=N/O)[nH]cnc32)[C@@H]1O [Example 46] please
OUTPUT: 1.96

INPUT: Continue with C[C@@]1(O)[C@@H](Cc2ccc(Cl)c(Cl)c2)O[C@@H](n2ccc3c(N)ncnc32)[C@@H]1O [Example 50]
OUTPUT: 1.23

INPUT: Next record, please: Cc1ncnc2c1ccn2[C@@H]1O[C@H](COc2ccc3cccnc3c2)[C@@](C)(O)[C@H]1O [Example 54]
OUTPUT: 2.30

###

assay: physchem; conditions: FaSSIF buffer, 25 °C, thermodynamic from solid
Counter-ions that a name gives are not always drawn.
value.kind: solubility at 4 h (µg/mL)
Respond with the bare value in µg/mL.

INPUT: Quick check: solubility at 4 h of C[C@@]1(O)[C@@H]([C@H](O)c2ccc(Cl)c(Cl)c2)O[C@@H](n2ccc3c(N)ncnc32)[C@@H]1O [Example 48, Sulfate Salt] ?
OUTPUT: 206

###

target: PRMT5/MEP50 complex (Homo sapiens (Human), UniProt O14744); assay: PRMT5 biochemical assay (3H-SAM filter plate, histone H2A substrate)
value.kind: IC50 (µM)
Express your answer in µM, writing the number without its unit.

INPUT: So what's the measured IC50 for this one? CO/N=c1\[nH]cnc2c1ccn2[C@@H]1O[C@H](COc2ccc3ccc(N)nc3c2)[C@@](C)(O)[C@H]1O [Example 32]
OUTPUT: 0.01

###

target: PRMT5/MEP50 complex (Homo sapiens (Human), UniProt O14744); assay: PRMT5 biochemical assay (3H-SAM filter plate, histone H2A substrate); details: PRMT5/MEP50 5 nM, histone H2A 5 μM, SAM 1 μM; read-out: PRMT5 IC50
value.kind: pIC50
Lab note — pIC50 values are minus log10 of concentrations in M.

Below, 3 compounds whose answers are already recorded.
[[record]]
smi = "C[C@@]1(O)[C@@H]([C@H](O)c2ccc(Cl)cc2)O[C@@H](n2ccc3c(N)ncnc32)[C@@H]1O"
observed_result = 8.32

[[record]]
smi = "Cc1ncnc2c1ccn2[C@@H]1O[C@H](COc2ccn3c(C)cnc3c2)[C@@](C)(O)[C@H]1O"
observed_result = 9.00

[[record]]
smi = "C[C@@]1(O)[C@@H](Cc2ccc(Cl)cc2CO)O[C@@H](n2ccc3c(N)ncnc32)[C@@H]1O"
observed_result = 6.38


INPUT: Request body: readout pIC50, system PRMT5/MEP50 complex (Homo sapiens (Human), UniProt O14744), query `C[C@@]1(O)[C@@H]([C@H](O)c2ccc(Cl)c(Cl)c2)O[C@@H](n2ccc3c(N)ncnc32)[C@@H]1O` . Return the value.
OUTPUT: 8.82

INPUT: Proceed to `Cc1ncnc2c1ccn2[C@@H]1O[C@H]([C@H](O)c2ccc(Cl)c(Cl)c2)[C@@](C)(O)[C@H]1O`
OUTPUT: 7.96

INPUT: What do we get for `Cc1ncnc2c1ccn2[C@@H]1O[C@H](COc2ccc3ccc(N)nc3c2)[C@@](C)(O)[C@H]1O` ?
OUTPUT: 8.96

INPUT: Item: `C[C@@]1(O)[C@@H](COc2ccc3ccc(N)nc3c2)O[C@@H](n2ccc3c(N)ncnc32)[C@@H]1O`
OUTPUT: 9.12

INPUT: Now this one: `C[C@@]1(O)[C@@H](C(=O)Nc2cccc(CN)c2)O[C@@H](n2ccc3c(Cl)ncnc32)[C@@H]1O`
OUTPUT: 5.04
